- method: Human PK, second comparative study: single dose food and PPI assessment of 100 mg powder-in-capsule (Panels J-M)
- Assay type: in vivo
- condition parameters: plasma, oral, 100 mg PIC single dose, Panel M: high fat breakfast + rabeprazole 20 mg BID, read-out: plasma Cmax, Median
readout kind: Cmax (nM)
Write the number in nM without appending the unit.

Record C[C@H]1CN(C2COC2)CCN1c1ccc(Nc2cc(-c3ccnc(N4CCn5c(cc6c5CC(C)(C)C6)C4=O)c3CO)cn(C)c2=O)nc1 [Compound (I) free base] , field Cmax: 40

---

- method: Human PK, second comparative study: single dose food and PPI assessment of 100 mg powder-in-capsule (Panels J-M)
- Assay type: in vivo
- condition parameters: plasma, oral, 100 mg, 100 mg PIC single dose, Panel J: fasted, no PPI, read-out: plasma AUC0-24, Mean
readout kind: AUC(0-t) (nM·h)
Report the value in nM·h with no unit label.

Quick note, AUC(0-t) for C[C@H]1CN(C2COC2)CCN1c1ccc(Nc2cc(-c3ccnc(N4CCn5c(cc6c5CC(C)(C)C6)C4=O)c3CO)cn(C)c2=O)nc1 [Compound (I) free base] landed at 967

---

- method: Human PK, second comparative study: single dose food and PPI assessment of 100 mg powder-in-capsule (Panels J-M)
- Format: in vivo
- condition parameters: 100 mg PIC single dose, Panel M: high fat breakfast + rabeprazole 20 mg BID, read-out: plasma Cmax, Mean
readout kind: Cmax (nM)
Give the quantity in nM, number only.

According to the records, this compound C[C@H]1CN(C2COC2)CCN1c1ccc(Nc2cc(-c3ccnc(N4CCn5c(cc6c5CC(C)(C)C6)C4=O)c3CO)cn(C)c2=O)nc1 [Compound (I) free base] displays Cmax of 41

---

- method: Solubility of compound (I) free base in buffers of varying pH, FeSSIF and FaSSIF
- Assay type: physicochemical
- condition parameters: aqueous buffer; pH 5.0; read-out: solubility
readout kind: solubility

solubility recorded for this molecule, CC1CN(C2COC2)CCN1c1ccc(Nc2cc(-c3ccnc(N4CCn5c(cc6c5CC(C)(C)C6)C4=O)c3CO)cn(C)c2=O)nc1 (stereo not shown) [Compound (A)] , is ~1 µg/mL

---

- method: Human PK, second comparative study: single dose food and PPI assessment of 100 mg powder-in-capsule (Panels J-M)
- Assay type: in vivo
- condition parameters: plasma, oral, 100 mg, 100 mg PIC single dose, Panel K: high fat breakfast, no PPI, read-out: plasma AUCinf, Median
readout kind: AUC(0-inf) (µM·h)
Answer format: numeric, µM·h implied, no suffix.

Value of AUC(0-inf) reported for the molecule C[C@H]1CN(C2COC2)CCN1c1ccc(Nc2cc(-c3ccnc(N4CCn5c(cc6c5CC(C)(C)C6)C4=O)c3CO)cn(C)c2=O)nc1 [Compound (I) free base] is 1.6

---

- method: Solubility of compound (I) free base in buffers of varying pH, FeSSIF and FaSSIF
- Type: physicochemical
- condition parameters: aqueous buffer, pH 7.76, aqueous buffer; read-out: Solubility
readout kind: solubility (µg/mL)
Express the result in µg/mL but write the number alone.

For reference, reported solubility for C[C@H]1CN(C2COC2)CCN1c1ccc(Nc2cc(-c3ccnc(N4CCn5c(cc6c5CC(C)(C)C6)C4=O)c3CO)cn(C)c2=O)nc1 [Compound (I) free base] stands at 1
